Each entry below carries its reported folding stability dG unfold.
- Method description: folding stability dG unfold from trypsin proteolysis; higher = more stable

Solved entries (count: 8):
[
  {
    "Sequence code": "SAGGSAGGSAGPPVTLDEIRDHLPPENIEDVEVNPPEGWVVIEFKPPGGEKQEITIRADDSAGGSAGGSAGG [r17_374_TrROS]",
    "Quantity name": "folding stability dG unfold",
    "Test value": "0.198 kcal/mol"
  },
  {
    "Sequence code": "SAGGDKNAKPIKPITISFTLEDGSKKTITATFYKDAVIVEITYINPKTGKPFTKTFVFKKKGVKLLLSAGGS [r16_419_TrMRF]",
    "Quantity name": "folding stability dG unfold",
    "Test value": "2.43 kcal/mol"
  },
  {
    "Sequence code": "SAGGSAGGSDPVVIPVPMDDFSKETIKNFIDEAPDDNRPIQMNFPNGKPIYIQVEPDGDIKPVSAGGSAGGS [r12_1054_TrROS]",
    "Quantity name": "folding stability dG unfold",
    "Test value": "0.557 kcal/mol"
  },
  {
    "Sequence code": "SAGKIEILDEKPYKDSITVVAKLPGTDEIIVLTYNPKTKTVEIKIFPPKGVKTIPVKAKDIEKALKEIASAG [r5_769_TrMRF]",
    "Quantity name": "folding stability dG unfold",
    "Test value": "0.728 kcal/mol"
  },
  {
    "Sequence code": "SAGGSAGGSKTIVLPKNMSIEQAREEILAKARELLPPGEKLKVTIEVVETPEGTYLKITIEKESAGGSAGGS [r12_1051_TrROS_Hall]",
    "Quantity name": "folding stability dG unfold",
    "Test value": "2.49 kcal/mol"
  },
  {
    "Sequence code": "SAGGSAGGSAGGKVEEVEKLAEELEKELGVDIGEVEVLDHPDKFRYRIRIPDLDLDLEFSAGGSAGGSAGGS [r10_161_TrMRF]",
    "Quantity name": "folding stability dG unfold",
    "Test value": "-0.529 kcal/mol"
  },
  {
    "Sequence code": "SAGGSAPEPVEFTLGHPDGVPYRVTLTRLPDTDLYLVTVEFPGPEVTFTGVAPLEVLENIPGLTPVSAGGSA [r15_622_TrMRF]",
    "Quantity name": "folding stability dG unfold",
    "Test value": "1.53 kcal/mol"
  },
  {
    "Sequence code": "SAGGSAGGSAGGGMMLAEFLKYDPRNPTATVVSVRTFSDPEEARAEAEKRGLLVRVIEPSAGGSAGGSAGGS [r10_657_JUSTAS]",
    "Quantity name": "folding stability dG unfold",
    "Test value": "-0.45 kcal/mol"
  }
]

Ask: Report measured folding stability dG unfold; entry is SAGGSPGQPYYIMIKLEWENPEDGEEHTFDIMFPVKSAEDAKDYILKELLPPGHKLKIDDISIMPMSAGGSA [r2_320_TrROS]
Reply: 1.48 kcal/mol

Ask: Report measured folding stability dG unfold; entry is SAGGSAGGSKKKITRIVITDFDPETGKVTVRIRNENGEEETIEVETLEELKELFPDVEVEVIPSAGGSAGGS [r12_403_TrROS_Hall]
Reply: 2.45 kcal/mol

Ask: Report measured folding stability dG unfold; entry is SAMIVKDLKTKEEIKKVLEEIAKKLGYPNVTPEEAEEILKKIGVKILSIEKNPKNPEKYIIKIKIEKPKSAG [r14_678_JUSTAS]
Reply: 2.23 kcal/mol

---

- Method description: folding stability dG unfold from chymotrypsin proteolysis; higher = more stable
# folding stability dG unfold >= 2 kcal/mol gives Y, anything below gives N

Some solved cases for reference:
[
  {
    "Sequence code": "SAGGRGVGRPGSRLLLVAEADLEPDEVSVEELAERIREAFPDVRVVDLRVEVGGEKARLFALVELDVSAGGS [r8_202_TrMRF]",
    "Assigned label": "N"
  },
  {
    "Sequence code": "SAGGWTIREILEKNPNLREFAKEGWTIEIYYPNGKSGRVKIKEGSADDILDDINKNFPGPVEISITKSAGGS [r16_655_TrROS]",
    "Assigned label": "N"
  },
  {
    "Sequence code": "SAGGSAGGSAGGKKIEIPGFEITKVEPLENDSVIAEGKFKNGKKYRILFLPNKVYINDESAGGSAGGSAGGS [r10_312_TrMRF]",
    "Assigned label": "N"
  },
  {
    "Sequence code": "SAGGSAKMKKVKITLYAKVKSLEEAKEIAEEIKKSFPSIEKVEVKTEPLEDGSLLVKVDAIFYVPESAGGSA [r15_726_TrMRF]",
    "Assigned label": "Y"
  },
  {
    "Sequence code": "SAGGGAMLVGETTTSKWIEKTIRNENGEVETKKVKVTTKPVTYKLPDGTLATETKVTIIYPDGSTKEESAGG [r13_113_JUSTAS]",
    "Assigned label": "N"
  },
  {
    "Sequence code": "SAGGSAGGSAPPVKTITVELVFFNPETQEVFVLRAEVRLLPDGTLEIRTEIERVKVEPGAVLLSAGGSAGGS [r12_116_TrROS_Hall]",
    "Assigned label": "Y"
  },
  {
    "Sequence code": "SAGGSAGGSAGKTIKILLVVKDPETNEYYFLVMEIHLDENGNLHMKIKVFPTKEDAEKALSAGGSAGGSAGG [r11_792_TrROS_Hall]",
    "Assigned label": "Y"
  },
  {
    "Sequence code": "SAGGSTAEELADQIHKKFMEQGYKITDVDITYNPNNWVMVKATIRNPDDPNQRMKMNIMIPKDEIKSAGGSA [r2_384_TrROS]",
    "Assigned label": "N"
  },
  {
    "Sequence code": "SAGGAEIKITSIEYNPETKTITAKVEITVDGKKFTFTITIKLKAAPAPPTVTVTDKDIPGKTVTLTKTSAGG [r13_615_TrROS_Hall]",
    "Assigned label": "Y"
  },
  {
    "Sequence code": "SAGGSSLPPEYTVTEVEREFTTPEDVAEARAAAEAAAAAGAEVLEVTVERPEDGSYRVRFTLATPRSAGGSA [r2_350_JUSTAS]",
    "Assigned label": "N"
  }
]

Ask: Evaluate SAGGSAGGSAFKLPPGKKITIFFDPENGNFAIMVPDGNERRVPMPAEELIKLGFPVEIIGPWSAGGSAGGSA [r18_125_TrROS] : folding stability dG unfold at minimum 2 kcal/mol?
Reply: N

Ask: Evaluate SAGGMLITEEDLAALLAAVPPERPDAVVTLTVGRLQRILPGSTGENEPIPSSVEPSVVTLPVTVPPASAGGS [r16_708_JUSTAS] : folding stability dG unfold at minimum 2 kcal/mol?
Reply: N

Ask: Evaluate SAGGSKLPPGQKVIEIEWKIPPGLKPGQPFKISDEFINKLAERHGNIHITNIQFTNSYMKWSIIIDSAGGSA [r2_383_TrROS] : folding stability dG unfold at minimum 2 kcal/mol?
Reply: Y

Ask: Evaluate SAGGSAGGSTVEEELLEKAAAAHPPGTTLTVDVVIVDPNNPVPIGTRTVTITVNADGSYTVVDSAGGSAGGS [r20_151_JUSTAS] : folding stability dG unfold at minimum 2 kcal/mol?
Reply: Y

Ask: Evaluate SAGGSAGGSNTITVFMKVDDPEDALDEISEEIRDLFPPGIEVEIQPEQNEDKRGWVQVTIEFKSAGGSAGGS [r20_122_TrROS] : folding stability dG unfold at minimum 2 kcal/mol?
Reply: N

---

Each entry below carries its reported folding stability dG unfold.
- Method description: folding stability dG unfold from trypsin proteolysis; higher = more stable
Express the result in kcal/mol but write the number alone.

Ask: Report measured folding stability dG unfold; entry is SAGGIVVGEEGVVRITGPGEPVIIPLPENSEVVEIDVPDDGYVRITLRVDGKTVTVDFPSAPPGLTLSAGGS [r16_635_TrMRF]
Reply: 1.34

---

- Method description: folding stability dG unfold (combined trypsin and chymotrypsin); higher = more stable
Quantity name: folding stability dG unfold

[
  {
    "Sequence code": "SAGPPGQPIKPIDITVKPEENTITIKFGDKNLEIPIPPGVEADIWVYPDHIVITIEFPDGKIVTIVLPFSAG [r5_21_TrROS]",
    "Test value": "4.33 kcal/mol"
  },
  {
    "Sequence code": "SLTPEQVEKIAKTIADVFRKLGYELKVKTKVFEVNNVPVAVVEFELIDKDGKPRRFRFVIHPDGTIEIFPSA [r9_1027_TrMRF]",
    "Test value": "> 6 kcal/mol"
  },
  {
    "Sequence code": "SAGGSPARPVLVTITLPDGEEVTRRMTLEEIERLVAKDPNVKVTIELPDGSVYTVDPNTGTITKAPSAGGSA [r2_222_JUSTAS]",
    "Test value": "2.63 kcal/mol"
  }
]

Ask: Report measured folding stability dG unfold; entry is SAGMTFKNPGSDKTLTYEPETGAITLHNGDSVSTLPLPPGTSFTVTVDPEKGVVTITVPETGATITLPLSAG [r5_858_JUSTAS]
Reply: 0.803 kcal/mol

Ask: Report measured folding stability dG unfold; entry is SAKTKTIEIEVKIKLIEIDPKTGKKTEKEFTAKATITYDEENNVVTIKIEFKDNGKTITITLPPGAKIKSAG [r14_587_TrROS_Hall]
Reply: 2.26 kcal/mol

Ask: Report measured folding stability dG unfold; entry is SAGGMKTFEKPMTAEEVMALLEEIAKKGNVNVTIETEGKTYEVDPSKAKPIPPENVTAKITITELPKSAGGS [r16_628_JUSTAS]
Reply: 0.186 kcal/mol

Ask: Report measured folding stability dG unfold; entry is SAWNFKIEEVEVDPNDGRIWFTVKIPPNNPELAEEIAEELQDYGIKVKLINPDLPPGQTIIVQIEVKDPSAG [r14_354_TrROS]
Reply: 1.83 kcal/mol

Ask: Report measured folding stability dG unfold; entry is SAGGSAGGSPPNWKTIPITFWVDPGDVEEFANILRDLGLEIEDVEVEPNPDGHVWVTITIVIPSAGGSAGGS [r12_905_TrROS]
Reply: 3.33 kcal/mol

Ask: Report measured folding stability dG unfold; entry is SAGGSAGGSPKKRTVEIDEWDPEEGNVRARIRDDDEEREFPFRTPEDLEDLANEGGIDKITPHSAGGSAGGS [r12_421_TrROS]
Reply: 0.0607 kcal/mol

Ask: Report measured folding stability dG unfold; entry is SAGGSAGGSAVETLVTYEVPEDLPPDSLSPEAVIARFAPLGVPTEVVEIDPATGTVTVRTLVPSAGGSAGGS [r12_733_JUSTAS]
Reply: 0.664 kcal/mol

Ask: Report measured folding stability dG unfold; entry is SAGGSAGGSAGGIYPGPGNLLYFTGEDDYVKVIKITPPDNTIKIDIEIVPKGEATKIPYSAGGSAGGSAGGS [r10_257_TrMRF]
Reply: -0.00595 kcal/mol

Ask: Report measured folding stability dG unfold; entry is SAGMKKEKPKETVTITLKNGKKIEIVKTDDSIKIFITDKNGKKRELTVKGLSLEEILKKLEELGFEVEPSAG [r5_613_TrROS_Hall]
Reply: 0.353 kcal/mol

Ask: Report measured folding stability dG unfold; entry is SAPVRTVTLNVPVERDAAGNLVPVSPEEIVAELEKEGYPREEIEVKNVTETTIPVTIEVDLVNGKMRVLGSA [r9_225_JUSTAS]
Reply: < -1 kcal/mol
